# Test system: T-47D breast
# experimentalProtocol: NCI tumour cell line growth inhibition, 48 h
outcomeMeasure: TGI (µM)

• Clc1cc(Cl)cc(Nc2ccc3cc(OCCCN4CCOCC4)ccc3n2)c1 = 14.1
• CC(C)(C)OC(=O)C1C(=O)NC(=O)CC1C(COCc1ccccc1)OCc1ccccc1 (stereo not given) = 38.7
• COC(=O)C1=C(C)NC(C)=C([N+](=O)[O-])C1c1cccc(N=O)c1 (stereo not given) = 37.3

====

# System: SNB-19 CNS
# experimentalProtocol: NCI tumour cell line growth inhibition, 48 h
outcomeMeasure: TGI

• CC(C)CCn1nc(N)c2nc3ccccc3nc21 = > 100 µM
• COC(=O)c1cccc2cccc(C(=O)Nc3ccc(Cl)cc3)c12 = > 100 µM
• O=C(OCC(OC(=O)c1ccccc1)C(OC(=O)c1ccccc1)C(OC(=O)c1ccccc1)c1cnn(-c2ccccc2)n1)c1ccccc1 (stereo not given) = > 100 µM
• COc1cc(CC(C)N)ccc1O (stereo not given) = > 100 µM
• Cc1cc(C)n(-c2nnc3n2N=C(c2ccc(-c4ccccc4)cc2)CS3)n1 = > 100 µM
• O=c1[nH]c(=O)n([C@H]2CCCO2)cc1F = > 5000 µM
• COc1cc(CNc2nc3cc(C(F)(F)F)ccc3nc2-c2ccccc2)cc(OC)c1OC = > 100 µM
• COc1cc(OCc2ccc3nc(OC)c(OC)nc3c2)cc(OC)c1OC = > 10 µM
• Cc1nn(C(=O)c2ccc(Cl)cc2)c2c1C(c1ccc(O)cc1)SC(N)=N2 (stereo not given) = > 10 µM
• COc1cc(C(=O)N2CCc3c([nH]c4c([N+](=O)[O-])c(OC)ccc34)C2C)cc(OC)c1OC (stereo not given) = > 100 µM
• CN(C)P(=O)(Oc1occc1C(O)Cc1ccccc1)N(C)C (stereo not given) = > 100 µM
• O=C1C(Cl)=C(Nc2ccccc2O)C(=O)N1Cc1ccccc1 = > 100 µM
• O=C(CCc1cccc(O)c1)NCCCNC(=O)CCc1cccc(O)c1 = > 100 µM
• CCCCCCCCCCN1CCC(N2CCCCC2)CC1 = 14.5 µM
• O=C1CS(=O)C23c4cc5ccccc5n4CCC2CCCN13 (stereo not given) = > 100 µM
• O=C(NCc1ccc(S(=O)(=O)c2cc(F)cc(F)c2)cc1)c1ccc2nccn2c1 = > 100 µM
• COC(=O)[C@H](C)NC(=O)[C@H](CSC)N1C(=O)N[C@@H](C(C)C)C1=O = > 100 µM
• CCC(=O)Nc1ccc(N=NN(C)C)cc1 = > 100 µM
• Oc1ccc(Br)cc1C=Nc1ccc(N=Cc2cc(Br)ccc2O)cc1 = > 100 µM
• C=C1C(=O)OC2/C=C(/C)C3(O)OC(C)(CC(OC(=O)C(C)C)C12)CC3OC(C)=O (stereo not given) = 36.6 µM
• Cc1cccc(C)c1NC(=O)C(=O)CC(=O)c1cccc([N+](=O)[O-])c1 = > 100 µM
• Cc1cc(/N=C/c2ccc(C#N)cc2)n(-c2ccccc2)n1 = > 100 µM
• O=C1CC(Sc2nc3ccc(I)cc3c(=O)n2Cc2ccccc2)C(=O)NN1 (stereo not given) = 39.1 µM
• Cc1ccc(Nc2nnc(-c3ccc4c(c3)OCO4)o2)c(C)c1 = > 100 µM
• C=CCn1c2c(sc1=S)C(S)N=CN2 (stereo not given) = > 100 µM
• COc1ccc(N=NC(=Nc2ccc(F)cc2)c2ccc(N(CCC#N)CCC#N)cc2)cc1 = > 100 µM
• CC(=O)OC1C2CCC1C1C2C2(Cl)C(Cl)=C(Cl)C1(Cl)C2(Cl)Cl (stereo not given) = 28.6 µM
• CCOC(=O)Cn1c(=O)n(C)c(=O)c2c1ncn2Cc1ccccc1 = > 100 µM
• COc1cc(C=C2C(=O)NC(=S)NC2=O)cc(OC)c1OC = > 100 µM
• CC1=C[C@@H](C)C[C@]2(C)CC[C@H](O2)[C@]23CC[C@](C(=O)O)(C[C@H](O2)[C@@H]2O[C@@](C)(CC2=O)[C@@H](O)[C@H]2CC[C@@]4(CCC[C@@H](O4)[C@H](C)C(=O)O[C@H]4C[C@H]([C@]5(O)OCC[C@H](C)[C@@H]5O)O[C@H]4C=C1)O2)O3 = > 10 µM
• COC(C(=O)[C@@H](O)[C@@H](C)O)[C@@H]1Cc2cc3cc(O[C@H]4C[C@@H](O[C@H]5C[C@@H](O)[C@H](O)C(C)O5)[C@H](O)C(C)O4)c(C)c(O)c3c(O)c2C(=O)[C@H]1O[C@H]1C[C@@H](O[C@H]2C[C@@H](O[C@H]3C[C@@H](O)[C@H](OC)C(C)O3)[C@@H](O)C(C)O2)[C@H](O)C(C)O1 (stereo not given in full) = > 33.3 µM
• CC1=CC(=O)CC2(C)CCC(C(C)CC(=O)CC(C)C)CC12 (stereo not given) = > 100 µM
• O/C(=C\c1nc2ccccc2nc1NC12CC3CC(CC(C3)C1)C2)c1ccc(Br)cc1 = > 10 µM
• O=C(CSC(c1ccccc1)c1ccccc1)N/N=C/c1ccco1 = > 100 µM
• CC(C)(C)OC(=O)C1C(=O)NC(=O)CC1C(COCc1ccccc1)OCc1ccccc1 (stereo not given) = > 100 µM
• O=C(O)C12CC3(C(=O)O)CC(C(=O)O)(CC(C(=O)O)(C1)C3=O)C2=O = > 100 µM
• O=C1CCc2ccc3c(c21)CC1(Cc2ccccc2C1)C3 = > 100 µM
• C/C(CCn1[nH]c(=O)ccc1=O)=N\OCCCc1ccccc1 = > 100 µM
• O=C(CNCc1ccccc1)Oc1c(Cl)c(Cl)c(Cl)c(Cl)c1Cl = > 100 µM
• COC(=O)CCC1=C(CC(=O)OC)C(C)=N/C1=C\c1[nH]c(-c2ccc[nH]2)cc1OC = 31.1 µM
